biological target: Serotonin 5-HT2A (Homo sapiens); construct: host or cells: CHO-K1; test: Radioligand displacement binding assay, [3H]ketanserin, 5-HT2A; details: 3 μM
Sequence (P28223 whole entry): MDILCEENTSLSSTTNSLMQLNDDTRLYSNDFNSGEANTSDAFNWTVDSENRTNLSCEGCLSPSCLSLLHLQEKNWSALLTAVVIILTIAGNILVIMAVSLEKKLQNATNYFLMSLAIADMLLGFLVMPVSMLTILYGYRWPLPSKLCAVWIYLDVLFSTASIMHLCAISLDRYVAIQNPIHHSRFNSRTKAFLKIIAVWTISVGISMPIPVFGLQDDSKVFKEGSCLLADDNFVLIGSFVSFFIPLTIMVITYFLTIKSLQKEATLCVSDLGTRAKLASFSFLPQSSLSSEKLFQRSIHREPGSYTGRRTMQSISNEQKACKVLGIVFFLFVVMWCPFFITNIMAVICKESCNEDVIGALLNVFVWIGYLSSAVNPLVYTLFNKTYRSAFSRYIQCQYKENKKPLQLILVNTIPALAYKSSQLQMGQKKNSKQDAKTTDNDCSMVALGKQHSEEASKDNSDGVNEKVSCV
parameter.measured: inhibition at 3 µM

# molecule, parameter.measured, result
records = [
    ("CCC1=N[C@H](C)CC1(c1ccccc1)c1ccccc1 [(R)-EMDP]", "inhibition at 3 µM", "14%"),
    ("CCC(=O)C(C[C@H](C)N(C)C)(c1ccccc1)c1ccccc1 [(S)-methadone, reference compound]", "inhibition at 3 µM", "72%"),
    ("CC[C@H](O)C(C[C@@H](C)NC)(c1ccccc1)c1ccccc1 [(3S,6R)-NML]", "inhibition at 3 µM", "11%"),
    ("CC[C@@H](O)C(C[C@H](C)NC)(c1ccccc1)c1ccccc1 [(3R,6S)-NML]", "inhibition at 3 µM", "4%"),
    ("CC[C@@H](O)C(C[C@@H](C)NC)(c1ccccc1)c1ccccc1 [(3R,6R)-NML]", "inhibition at 3 µM", "-3%"),
    ("CC[C@H](O)C(C[C@H](C)NC)(c1ccccc1)c1ccccc1 [(3S,6S)-NML]", "inhibition at 3 µM", "-11%"),
    ("CC[C@H](O)C(C[C@H](C)N)(c1ccccc1)c1ccccc1 [(3S,6S)-DNML, (3S,6S)-6-amino-4,4-diphenylheptan-3-ol]", "inhibition at 3 µM", "10%"),
    ("CC[C@@H](O)C(C[C@H](C)N)(c1ccccc1)c1ccccc1 [(3R,6S)-DNML, (3R,6S)-6-amino-4,4-diphenylheptan-3-ol]", "inhibition at 3 µM", "9%"),
    ("CC[C@H](O)C(C[C@@H](C)N)(c1ccccc1)c1ccccc1 [(3S,6R)-DNML, (3S,6R)-6-amino-4,4-diphenylheptan-3-ol]", "inhibition at 3 µM", "10%"),
    ("CC[C@@H](O)C(C[C@@H](C)N)(c1ccccc1)c1ccccc1 [(3R,6R)-DNML, (3R,6R)-6-amino-4,4-diphenylheptan-3-ol]", "inhibition at 3 µM", "8%"),
]
